- study-target: T1, Human CD100 (human, UniProt Q92854 22-734, limits assumed)
- T1 construct: also called SEMA4D; Hu CD100
- T1 sequence (looked up): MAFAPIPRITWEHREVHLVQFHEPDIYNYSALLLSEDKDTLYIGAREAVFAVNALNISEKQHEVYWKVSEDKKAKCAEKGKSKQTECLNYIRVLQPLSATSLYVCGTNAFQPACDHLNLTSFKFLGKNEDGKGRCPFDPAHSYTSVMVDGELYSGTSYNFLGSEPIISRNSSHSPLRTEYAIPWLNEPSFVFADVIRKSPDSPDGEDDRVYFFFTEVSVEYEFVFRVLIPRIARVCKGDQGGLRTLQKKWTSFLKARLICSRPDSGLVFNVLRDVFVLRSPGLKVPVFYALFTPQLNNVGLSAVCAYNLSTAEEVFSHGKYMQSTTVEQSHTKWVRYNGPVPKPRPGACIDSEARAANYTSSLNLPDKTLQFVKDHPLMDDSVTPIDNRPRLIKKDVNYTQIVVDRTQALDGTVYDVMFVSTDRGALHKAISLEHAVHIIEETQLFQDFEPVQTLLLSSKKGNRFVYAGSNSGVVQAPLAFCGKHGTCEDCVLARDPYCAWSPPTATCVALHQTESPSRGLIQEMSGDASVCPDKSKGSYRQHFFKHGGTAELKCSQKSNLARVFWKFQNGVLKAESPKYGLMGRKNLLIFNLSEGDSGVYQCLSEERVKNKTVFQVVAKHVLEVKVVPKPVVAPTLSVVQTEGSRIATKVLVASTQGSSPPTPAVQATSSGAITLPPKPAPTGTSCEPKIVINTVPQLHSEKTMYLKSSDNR
- assay-summary: affinity testing, method and unit not printed in Example 10 (nM as in Table 3)
pKd: −log10 of the molar value.
reported-endpoint: pKd

[[record]]
binder = "MAb 2276 (antibody, V domains shown, Double mutant of H1651 with L284; also called H1651 Q6A G57Y with L284) VH: QVQLVASGAEVKKPGSSVKVSCKASGYTFTDYYMDWVRQAPGQGLEWMGRVNPYHGYATYNQKFKGRVTITADKSTSTAYMELSSLRSEDTAVYYCAREENSYDGYYGMDYWGQGTLVTVSS VL: DIVMTQSPLSLPVSPGEPATINCKSSQSLFNSGNQKNYLAWYLQKPGQPPKLLIYGASTRESGVPDRFSGSGSGTDFTLTISSLQAEDVAVYYCQNDHTYPYTFGQGTKLEIK"
reported_measurement = 10.05

[[record]]
binder = "MAb 2285 (antibody, V domains shown, Double mutant of H1651 with L284; also called H1651 K23T Y60V with L284) VH: QVQLVQSGAEVKKPGSSVKVSCTASGYTFTDYYMDWVRQAPGQGLEWMGRVNPYHGGATVNQKFKGRVTITADKSTSTAYMELSSLRSEDTAVYYCAREENSYDGYYGMDYWGQGTLVTVSS VL: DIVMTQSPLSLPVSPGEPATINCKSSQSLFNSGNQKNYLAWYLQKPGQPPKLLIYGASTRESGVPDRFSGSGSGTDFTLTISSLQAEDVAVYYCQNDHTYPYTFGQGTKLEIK"
reported_measurement = 10.00

[[record]]
binder = "MAb 2281 (antibody, V domains shown, Double mutant of H1651 with L284; also called H1651 K23T G57F with L284) VH: QVQLVQSGAEVKKPGSSVKVSCTASGYTFTDYYMDWVRQAPGQGLEWMGRVNPYHGFATYNQKFKGRVTITADKSTSTAYMELSSLRSEDTAVYYCAREENSYDGYYGMDYWGQGTLVTVSS VL: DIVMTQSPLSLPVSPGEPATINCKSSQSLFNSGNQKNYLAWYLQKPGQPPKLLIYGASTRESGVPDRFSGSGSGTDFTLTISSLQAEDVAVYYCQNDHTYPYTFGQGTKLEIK"
reported_measurement = 10.05

[[record]]
binder = "MAb 2282 (antibody, V domains shown, Double mutant of H1651 with L284; also called H1651 K23T G57Y with L284) VH: QVQLVQSGAEVKKPGSSVKVSCTASGYTFTDYYMDWVRQAPGQGLEWMGRVNPYHGYATYNQKFKGRVTITADKSTSTAYMELSSLRSEDTAVYYCAREENSYDGYYGMDYWGQGTLVTVSS VL: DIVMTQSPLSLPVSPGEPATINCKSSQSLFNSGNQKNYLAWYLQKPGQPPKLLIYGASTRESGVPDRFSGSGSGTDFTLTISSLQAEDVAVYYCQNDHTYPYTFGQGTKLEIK"
reported_measurement = 10.05

